Test system: MALME-3M melanoma
test.description: NCI tumour cell line growth inhibition, 48 h
Consider the following molecules; for each one, report its GI50.

Task item: Consider the molecule shown here: C[C@@H](Oc1cc(-c2cnn(C3CC4(CCNCC4)C3)c2)cnc1N)c1c(F)ccc(Cl)c1Cl What is its recorded GI50?
Reply: 1290 nM

Task item: Consider the molecule shown here: C=C1C(=O)O[C@H]2[C@H]1CC/C(Cn1cc(Cn3ccc4cc(Cl)ccc43)nn1)=C\CC[C@@]1(C)O[C@@H]21 What is its recorded GI50?
Reply: 1580 nM

Task item: Consider the molecule shown here: CCN(CC)CCCC(C)N/C(c1cccc(OC)c1)=c1\c(=O)[nH]n(-c2c3ccccc3nc3ccccc23)c(=O)\c1=C(/NC(C)CCCN(CC)CC)c1cccc(OC)c1 (centres undefined) What is its recorded GI50?
Reply: 1900 nM

Task item: Consider the molecule shown here: C[C@]12CC[C@H]3[C@@H](CC=C4C[C@@H](O)CC[C@@]43C)[C@@H]1C/C(=C\c1cccc(OCCCn3ccnc3)c1)[C@@H]2O What is its recorded GI50?
Reply: 15700 nM

---

Tested on: HS 578T breast
test.description: NCI tumour cell line growth inhibition, 48 h; in the data active means GI50 below about 0.43 µM; inactive means the rest
Tick one outcome: active, inactive

Task item: For C=C1C(=O)O[C@H]2[C@H]1CC/C(COC(=O)N[C@@H](Cc1c[nH]c3ccccc13)C(=O)OC)=C\CC[C@@]1(C)O[C@@H]21 , which call appears in the assay record?
Reply: inactive

Task item: For COc1ccc2c(c1)/C(=C/c1c(-c3ccc(C)cc3)nc3sc(C)cn13)C(=O)N2 , which call appears in the assay record?
Reply: inactive

Task item: For C[C@]12CC[C@H]3[C@@H](CC=C4C[C@@H](O)CC[C@@]43C)[C@@H]1C/C(=C\c1cccc(OCCCn3ccnc3)c1)[C@@H]2O , which call appears in the assay record?
Reply: inactive

Task item: For COc1cc(/C=C/C(=O)CC(=O)/C=C/c2ccc(OC(=O)CCNC34CC5CC(CC(C5)C3)C4)c(OC)c2)ccc1OC(=O)CCNC12CC3CC(CC(C3)C1)C2 , which call appears in the assay record?
Reply: inactive

Task item: For C=C1C(=O)O[C@H]2[C@H]1CC/C(Cn1cc(Cn3ccc4cc(Cl)ccc43)nn1)=C\CC[C@@]1(C)O[C@@H]21 , which call appears in the assay record?
Reply: inactive

Task item: For Cc1c(N(C(=O)c2cc(-c3cc(Cl)ccc3C(=O)N3Cc4ccccc4C[C@H]3CN3CCOCC3)n(C)c2C)c2ccc(O)cc2)cc(C#N)n1C , which call appears in the assay record?
Reply: inactive

Task item: For Nc1c(C(=O)Nc2cccc3ccccc23)sc2nc3c(cc12)CCCCC3 , which call appears in the assay record?
Reply: active

Task item: For CCN(CC)CCCC(C)N/C(c1cccc(OC)c1)=c1\c(=O)[nH]n(-c2c3ccccc3nc3ccccc23)c(=O)\c1=C(/NC(C)CCCN(CC)CC)c1cccc(OC)c1 (stereo unspecified) , which call appears in the assay record?
Reply: inactive

Task item: For O=C(Nc1nc(-c2ccc(Cl)cc2)cs1)c1ccc(O)c(O)c1 , which call appears in the assay record?
Reply: inactive

Task item: For CCSc1nc(=S)[nH]c2[nH]ncc12 , which call appears in the assay record?
Reply: inactive

Task item: For CCCCCCCCO/N=C\c1c2c(O)c3c(O)c(C)c4c(c3c1O)C(=O)C(C)(O/C=C\C(OC)C(C)C(OC(C)=O)C(C)C(O)C(C)C(O)C(C)/C=C\C=C(\C)C(=O)N2)O4 (stereo unspecified) , which call appears in the assay record?
Reply: inactive

Task item: For CC1=C([Se]CC(OC(=O)[C@@H](CSSC(C)(C)C)NC(=O)C(C)(C)C)C(=O)NCCCCCC(=O)OCc2ccccc2)C(=O)c2ccccc2C1=O (stereo partly specified) , which call appears in the assay record?
Reply: inactive

Task item: For O=[N+]([O-])c1ccccc1/C=C/C=C1c2ccccc2-c2ccccc21 , which call appears in the assay record?
Reply: inactive

Task item: For C=C1C(=O)O[C@H]2[C@H]1CC/C(COC(=O)NCCc1c[nH]c3ccccc13)=C\CC[C@@]1(C)O[C@@H]21 , which call appears in the assay record?
Reply: inactive

Task item: For CN1CCN(CCCOc2ccc3ncnc(Nc4ccc(Oc5cccc(C(F)(F)F)c5)c(Cl)c4)c3c2)CC1 , which call appears in the assay record?
Reply: inactive

Task item: For C/C(=C\c1ccn(-c2ccc(N)cc2C(F)(F)F)n1)[C@@H]1C[C@@H]2O[C@]2(C)CCC[C@H](C)[C@H](O)[C@@H](C)C(=O)C(C)(C)[C@@H](O)CC(=O)O1 , which call appears in the assay record?
Reply: active

---

Test system: SK-MEL-5 melanoma
test.description: NCI tumour cell line growth inhibition, 48 h
Consider the following compounds; for each one, report its TGI.

Task item: Consider the compound shown here: C=C1C(=O)O[C@H]2[C@H]1CC/C(Cn1cc(Cn3ccc4cc(Cl)ccc43)nn1)=C\CC[C@@]1(C)O[C@@H]21 What is its recorded TGI?
Reply: 3.32 µM

Task item: Consider the compound shown here: CNC(=O)C(C)NC(=O)C(Cc1ccccc1)NC(=O)OC(C)(C)C (stereo not given) What is its recorded TGI?
Reply: > 100 µM

Task item: Consider the compound shown here: CC1=C(N(C)C)C(=O)c2nc3n(c2C1=O)CCC3OC(N)=O (stereo not given) What is its recorded TGI?
Reply: 23.7 µM

Task item: Consider the compound shown here: OC1C=C2C3CN(Cc4cc5c(cc43)OCO5)[C@H]2C[C@@H]1O (stereo not given in full) What is its recorded TGI?
Reply: 16.4 µM

Task item: Consider the compound shown here: c1cncc(-c2cc(-c3cc(-c4cccnc4)n[nH]3)[nH]n2)c1 What is its recorded TGI?
Reply: > 100 µM

---

Consider the following molecules; for each one, report its GI50.
System: NCI-H23 lung
test.description: NCI tumour cell line growth inhibition, 48 h

Task item: Consider the molecule shown here: CCOC(=O)c1ccc(C(O)CC(=O)OC(C)(C)C)[nH]1 (centres undefined) What is its recorded GI50?
Reply: 44.4 µM

Task item: Consider the molecule shown here: Cc1cc(S(=O)(=O)/N=C(\N)n2nc(C)c(C)c2C)c(SCc2ccccc2)cc1Cl What is its recorded GI50?
Reply: 7.04 µM

Task item: Consider the molecule shown here: C=C1C(=O)O[C@H]2[C@H]1CC/C(COC(=O)N[C@@H](Cc1c[nH]c3ccccc13)C(=O)OC)=C\CC[C@@]1(C)O[C@@H]21 What is its recorded GI50?
Reply: 1.84 µM

Task item: Consider the molecule shown here: Cc1cc2c(cc1C)[n+](=O)c(C(=O)c1cccs1)c(C(F)(F)F)n2[O-] What is its recorded GI50?
Reply: 6.25 µM

---

System: NCI-H460 lung
Tick one outcome: active, inactive

Task item: For COc1cc(C(=O)O)ccc1NC(=O)[C@@H]1N[C@@H](CC(C)(C)C)[C@](C#N)(c2ccc(Cl)cc2F)[C@H]1c1cccc(Cl)c1F , which call appears in the assay record?
Reply: active

Task item: For CCC[C@H](Nc1nc(-c2ccc(NC(=O)NCC)c(OC)c2)ncc1C)c1cccnc1 , which call appears in the assay record?
Reply: active

Task item: For O=[N+]([O-])c1ccccc1/C=C/C=C1c2ccccc2-c2ccccc21 , which call appears in the assay record?
Reply: inactive

Task item: For COC1(OC)C[C@H](C)[C@@]23O[C@]24c2cc(O)c5c(c2N[C@H]3C#C/C=C\C#C[C@]14O)C(=O)c1ccccc1C5=O , which call appears in the assay record?
Reply: active

Task item: For C[C@]12CC[C@H]3[C@@H](CC=C4C[C@@H](O)CC[C@@]43C)[C@@H]1C/C(=C\c1cccc(OCCCn3ccnc3)c1)[C@@H]2O , which call appears in the assay record?
Reply: inactive

Task item: For Fc1ccc(Nc2ccc3cc(OCCCN4CCOCC4)ccc3n2)cc1F , which call appears in the assay record?
Reply: inactive

Task item: For N#C/C(=C\c1ccc(Br)cc1)n1nnc2cc(F)c(F)cc21 , which call appears in the assay record?
Reply: inactive

Task item: For CCC[CH2][Sn]([CH2]CCC)([O]C(=O)c1cccc(F)c1F)[O][Sn]([CH2]CCC)([CH2]CCC)[O]C(=O)c1cccc(F)c1F , which call appears in the assay record?
Reply: inactive

Task item: For CCSc1nc(=S)[nH]c2[nH]ncc12 , which call appears in the assay record?
Reply: inactive

---

Consider the following molecules; for each one, report its TGI.
Test system: UACC-62 melanoma
test.description: NCI tumour cell line growth inhibition, 48 h
Give just the numeric value; µM need not be written.

Task item: UACC-62 melanoma / TGI / N#C/C(=C\c1ccc(Br)cc1)n1nnc2cc(F)c(F)cc21 : value?
Reply: 3

Task item: UACC-62 melanoma / TGI / CCC1=NC(N/N=C/c2ccccc2O)=N/C1=C\c1ccccc1O : value?
Reply: 48.4

Task item: UACC-62 melanoma / TGI / O=C(Nc1nc(-c2ccc(Cl)cc2)cs1)c1ccc(O)c(O)c1 : value?
Reply: 18.1

Task item: UACC-62 melanoma / TGI / CCCN(CCC)C(=S)N/N=C/c1cccc(C)n1 : value?
Reply: 9.45
